Test system: Oryza sativa, (L.) Tebonnet
ASSAY_COMMENT: Rice tolerance to post-transplant applications under flooded paddy conditions (Example 188), ORYSAT (Rice, Tebonnet)
CONDITION_SET: Rate 0.5000 kg/ha, rated three to four weeks after treatment
Some molecules, each annotated with its measured herbicidal effect rating, ORYSAT (rice tolerance).
Lab note: jot the number down without any unit.

Below are worked cases with known answers.
INSERT INTO assay_data (molecule, measurement_target, recorded_value) VALUES
  ('Cc1cc(O)c(-c2nsc3ccc(-n4c(=O)cc(C(F)(F)F)n(C)c4=O)cc23)cc1C', 'Oryza sativa, (L.) Tebonnet', 1.0),
  ('Cn1c(C(F)(F)F)cc(=O)n(-c2ccc3snc(-c4ccccc4)c3c2)c1=O', 'Oryza sativa, (L.) Tebonnet', 8.0),
  ('Cc1nsc2ccc(-n3c(=O)cc(C(F)(F)F)n(C)c3=O)cc12', 'Oryza sativa, (L.) Tebonnet', 9.0),
  ('COC(=O)COc1ccc(C)cc1-c1nsc2ccc(-n3c(=O)cc(C(F)(F)F)n(C)c3=O)cc12', 'Oryza sativa, (L.) Tebonnet', 8.0),
  ('CCc1ccc(-c2nsc3ccc(-n4c(=O)cc(C(F)(F)F)n(C)c4=O)cc23)cc1', 'Oryza sativa, (L.) Tebonnet', 8.0);

Notebook: "COC(=O)COc1cc(C)c(C)cc1-c1nsc2ccc(-n3c(=O)cc(C(F)(F)F)n(C)c3=O)cc12" , herbicidal effect rating, ORYSAT (rice tolerance) read as 7.0

# herbicidal effect rating, ORYSAT (rice tolerance) of "COc1cc(C)ccc1-c1nsc2ccc(-n3c(=O)cc(C(F)(F)F)n(C)c3=O)cc12" = 8.0

Reported herbicidal effect rating, ORYSAT (rice tolerance) ( COC(=O)C(C)Oc1cc(C)c(C)cc1-c1nsc2ccc(-n3c(=O)cc(C(F)(F)F)n(C)c3=O)cc12 (stereo not shown) ) = 7.0

Documented herbicidal effect rating, ORYSAT (rice tolerance) of "COc1ccc(C)cc1-c1nsc2ccc(-n3c(=O)cc(C(F)(F)F)n(C)c3=O)cc12" : 7.0

According to the records, this molecule COC(=O)C(C)Oc1ccc(C)cc1-c1nsc2ccc(-n3c(=O)cc(C(F)(F)F)n(C)c3=O)cc12 (stereo not shown) displays herbicidal effect rating, ORYSAT (rice tolerance) of 3.0

* * *

System: Sagittaria pygmaea, L.
ASSAY_COMMENT: Preemergence weed control under flooded paddy conditions, SAGPY (Arrowhead (Pygmaea)); note: meaning of each grade not given here
Type: in vivo
CONDITION_SET: Rate 0.2500 kg/ha; preemergence weeds, flooded paddy; rated three to four weeks after treatment
Labelling: herbicidal effect rating, SAGPY reported below 7 becomes 1; at or above becomes -1.

INSERT INTO results (compound, discrete_label) VALUES
  ('C#CCOC(=O)COc1cccc(-c2nsc3ccc(-n4c(=O)cc(C(F)(F)F)n(C)c4=O)cc23)c1 [Example 326]', -1),
  ('CONC(=O)COc1ccc(C)cc1-c1nsc2ccc(-n3c(=O)cc(C(F)(F)F)n(C)c3=O)cc12 [Example 316]', 1);

Is herbicidal effect rating, SAGPY strictly under 7 for the entry Cn1c(C(F)(F)F)cc(=O)n(-c2ccc3snc(-c4ccccc4OCC(=O)NS(=O)(=O)CCl)c3c2)c1=O [Example 344] ? 1

Please indicate whether the reported herbicidal effect rating, SAGPY of Cn1c(C(F)(F)F)cc(=O)n(-c2ccc3snc(C(=O)Oc4ccc(F)cc4)c3c2)c1=O [Example 320] is strictly below 7. 1

Hello, I'm reviewing records and need to know if herbicidal effect rating, SAGPY of Cn1c(C(F)(F)F)cc(=O)n(-c2ccc3snc(CSCC(=O)NS(C)(=O)=O)c3c2)c1=O [Example 297] is below 7. Could you check? -1

Attribution: patent EP0908457B1
